target.under.test: FGF-2 (Homo sapiens, UniProt P09038)
Sequence (P09038 134-288): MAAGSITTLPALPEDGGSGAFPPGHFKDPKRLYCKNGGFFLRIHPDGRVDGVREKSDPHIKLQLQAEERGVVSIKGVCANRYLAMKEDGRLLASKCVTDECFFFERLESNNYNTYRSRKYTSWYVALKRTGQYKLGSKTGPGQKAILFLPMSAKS
assay.info: FGF-2 induced sprouting of HUVEC, spheroid-based cellular angiogenesis assay
reported.conditions: FGF-2 25 ng/mL preincubated with compound, 24 h
IC50 strictly under 40 µM means satisfied; at 40 µM or over means not satisfied.

[
  {
    "molecule": "O=C(O)c1cc(O)cc(CS(=O)(=O)Cc2cc(O)cc(C(=O)O)c2O)c1O [IVc-059a]",
    "assigned.category": "satisfied"
  },
  {
    "molecule": "O=C(O)c1cc(O)c(C(=O)Nc2cnccc2C(=O)O)cc1O [Ia-023a]",
    "assigned.category": "not satisfied"
  },
  {
    "molecule": "O=C(O)c1cccc(NC(=O)c2cc(O)c(C(=O)O)cc2O)c1 [Ia-002a]",
    "assigned.category": "not satisfied"
  },
  {
    "molecule": "CCOC(=O)c1cc(O)c(C(=O)Nc2ccccc2-c2nnn[nH]2)cc1O [Ia-001a-Tz-E1]",
    "assigned.category": "not satisfied"
  },
  {
    "molecule": "O=C(O)c1cc(O)c(C(=O)Nc2ccccc2-c2nnn[nH]2)cc1O [Ia-001a-Tz]",
    "assigned.category": "satisfied"
  }
]

Prompt: Determine if O=C(O)c1cc(O)ccc1NC(=O)c1cc(O)cc(C(=O)O)c1O [IIa-006a] shows IC50 strictly lower than 40 µM.
Response: not satisfied

Prompt: Does the reported IC50 of the following molecule sit strictly below 40 µM? O=C(O)c1cc(O)cc(C(=O)Nc2ccccc2-c2nnn[nH]2)c1O [IIa-001a-Tz]
Response: satisfied

Prompt: Hi there! Is IC50 for CCOC(=O)c1cc(O)cc(C(=O)Nc2ccccc2-c2nnn[nH]2)c1O [IIa-001aTz-E1] below 40 µM, do you know?
Response: not satisfied

Prompt: Dear colleague, could you confirm whether IC50 of COC(=O)c1cc(O)ccc1NC(=O)c1cc(O)c(C(=O)Nc2ccc(O)cc2C(=O)OC)cc1O [Ic-009a-E2] falls below 40 µM? Thanks.
Response: satisfied

Prompt: Bench note: check whether COC(=O)c1cc(O)cc(CS(=O)(=O)Cc2cc(O)cc(C(=O)OC)c2O)c1O [IVc-059a-E2] shows IC50 below 40 µM
Response: not satisfied

Prompt: Answer whether the molecule O=C(O)c1cc(O)c(C(=O)NCc2ccc(O)c(O)c2)cc1O [Ia-035a] has IC50 strictly less than 40 µM
Response: not satisfied

Prompt: Identify whether the molecule O=C(O)c1cc(NC(=O)c2cc(O)c(C(=O)O)cc2O)cc(C(=O)O)c1 [Ia-015a] records IC50 below 40 µM.
Response: satisfied

Prompt: Strictly below 40 µM in IC50? O=C(O)c1cc(O)c(CS(=O)(=O)Cc2cc(O)c(C(=O)O)cc2O)cc1O [IIIc-059a]
Response: not satisfied

* * *

Tested on: IL-10
assay.info: Cytokine release after LPS induction on human whole blood: IL-10
Format: cell-based
reported.conditions: human whole blood, inhibition of LPS induced inflammation; read-out: IC50 IL-10
Labelling: IC50 reported below 20 µM becomes Y; at or above becomes N.

[
  {
    "molecule": "O=C(O)Cc1cc(O)c(C(=O)Nc2ccccc2-c2nnn[nH]2)cc1O",
    "target.under.test": "IL-10",
    "assigned.category": "Y"
  }
]

Prompt: Find out if reported IC50 for O=C(O)c1cc(O)c(C(=O)Nc2ccccc2-c2nnn[nH]2)cc1O [Ia-001a-Tz] is less than 20 µM
Response: N

Prompt: Determine whether this molecule shows IC50 lower than 20 µM (ties excluded): O=C(O)c1cc(O)cc(CSCc2cc(O)cc(C(=O)O)c2O)c1O [IVc-058a]
Response: Y

Prompt: Consider O=C(O)c1ccccc1CNC(=O)c1cc(O)cc(C(=O)O)c1O [IIa-053a] . Does its IC50 lie strictly below 20 µM?
Response: N

Prompt: Please state whether IC50 is below 20 µM for COC(=O)c1cc(OC(C)=O)cc(CS(=O)(=O)Cc2cc(OC(C)=O)cc(C(=O)OC)c2OC(C)=O)c1OC(C)=O [IVc-059a-E2-A4]
Response: Y

Prompt: Lab log: compare recorded IC50 with 20 µM; is it strictly lower for O=C(O)c1cc(O)c(CN(Cc2cc(O)c(C(=O)O)cc2O)Cc2cc(O)c(C(=O)O)cc2O)cc1O [IIIc-061a] ?
Response: Y

Prompt: Lab note: confirm whether the reported IC50 for this molecule is below 20 µM, equality not counting. molecule: O=C(O)c1cc(O)c(C(=O)Nc2ccc(-c3nnn[nH]3)cc2)cc1O [Ia-003a-Tz]
Response: Y

Prompt: Regarding O=C(O)c1cc(NC(=O)c2cc(O)c(C(=O)O)cc2O)cc(NC(=O)c2cc(O)c(C(=O)O)cc2O)c1 [Ib-010a] , kindly confirm whether its IC50 is beneath 20 µM.
Response: N

* * *

Test system: GM-CSF
assay.info: Cytokine release after LPS induction on human whole blood: GM-CSF
Format: cell-based
reported.conditions: human whole blood, inhibition of LPS induced inflammation; read-out: IC50 GM-CSF
reported.endpoint: IC50 (µM)
Report the value in µM with no unit label.

Worked cases, IC50 given:
[
  {
    "compound": "O=C(O)c1cc(O)c(CN(Cc2cc(O)c(C(=O)O)cc2O)Cc2cc(O)c(C(=O)O)cc2O)cc1O [IIIc-061a]",
    "unit.of.measurement": "µM",
    "reported.measurement": 31.2
  },
  {
    "compound": "O=C(O)c1cc(O)ccc1NC(=O)c1cc(O)cc(C(=O)Nc2ccc(O)cc2C(=O)O)c1O [IIc-009a]",
    "unit.of.measurement": "µM",
    "reported.measurement": 100
  },
  {
    "compound": "O=C(O)c1cc(O)c(C(=O)Nc2ccccc2-c2nnn[nH]2)cc1O [Ia-001a-Tz]",
    "unit.of.measurement": "µM",
    "reported.measurement": 100
  },
  {
    "compound": "O=C(O)c1cc(NC(=O)c2cc(O)cc(C(=O)Nc3ccc(O)c(C(=O)O)c3)c2O)ccc1O [IIc-007a]",
    "unit.of.measurement": "µM",
    "reported.measurement": 26
  },
  {
    "compound": "O=C(O)c1cc(O)c(C(=O)Nc2ccccc2C(=O)O)cc1O [Ia-001a]",
    "unit.of.measurement": "µM",
    "reported.measurement": 100
  },
  {
    "compound": "O=C(O)c1ccccc1CNC(=O)c1cc(O)cc(C(=O)O)c1O [IIa-053a]",
    "unit.of.measurement": "µM",
    "reported.measurement": 100
  },
  {
    "compound": "O=C(O)c1cc(NC(=O)c2cc(O)c(C(=O)O)cc2O)cc(NC(=O)c2cc(O)c(C(=O)O)cc2O)c1 [Ib-010a]",
    "unit.of.measurement": "µM",
    "reported.measurement": 100
  }
]

Prompt: Please report the recorded IC50 for O=C(O)c1cc(O)c(C(=O)Nc2ccc(-c3nnn[nH]3)cc2)cc1O [Ia-003a-Tz] .
Response: 100

* * *

System: IL-10
assay.info: Cytokine release after LPS induction on human whole blood: IL-10
Format: cell-based
reported.conditions: Homo sapiens, read-out: IC50 IL-10
reported.endpoint: pIC50
The read-out pIC50 is expressed as -log10 of concentration in moles per litre.

Prompt: I am curious: what pIC50 value has been reported for O=C(O)c1cc(NC(=O)c2cc(O)c(C(=O)Nc3ccccc3-c3nnn[nH]3)cc2O)ccc1O [Ic-001a-Tz/004a] ?
Response: 4.71

* * *

target.under.test: UniProtKB P05230
Sequence (P05230 whole entry): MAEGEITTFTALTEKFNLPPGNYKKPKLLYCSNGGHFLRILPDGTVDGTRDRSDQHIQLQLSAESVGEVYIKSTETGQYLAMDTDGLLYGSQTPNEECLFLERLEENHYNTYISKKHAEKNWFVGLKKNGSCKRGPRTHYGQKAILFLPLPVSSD
assay.info: FGF-1 induced sprouting of HUVEC, spheroid-based cellular angiogenesis assay
reported.conditions: FGF-1 25 ng/mL preincubated with compound, 24 h
Let's look at some compounds and their measured pIC50.
// field semantics: pIC50 = negative decimal log of concentration (mol/L)

Prompt: Data request, read-out pIC50, for O=C(O)c1cccc(NC(=O)c2cc(O)c(C(=O)O)cc2O)c1 [Ia-002a]
Response: 4.70

Prompt: Report pIC50 for O=C(O)c1cc(O)c(C(=O)Nc2c(C(=O)O)cccc2C(=O)O)cc1O [Ia-013a] please.
Response: 4.54

Prompt: Look at this compound and give its reported pIC50. O=C(O)Cc1ccccc1NC(=O)c1cc(O)cc(C(=O)O)c1O [IIa-034a]
Response: 4.66

Prompt: Entry O=C(O)c1cc(O)cc(CSCc2cc(O)cc(C(=O)O)c2O)c1O [IVc-058a] has what pIC50?
Response: 4.44

Prompt: Quick check: pIC50 of O=C(O)c1cc(O)c(C(=O)Nc2ccc(C(=O)O)c(C(=O)O)c2)cc1O [Ia-014a] ?
Response: 4.70

Prompt: Bench note: what pIC50 did O=C(O)c1cc(O)c(C(=O)Nc2ccc(-c3nnn[nH]3)cc2)cc1O [Ia-003a-Tz] show?
Response: 5.17

Prompt: What value of pIC50 has been reported for the following compound? O=C(O)c1cc(O)ccc1NC(=O)c1cc(O)cc(C(=O)Nc2ccc(O)cc2C(=O)O)c1O [IIc-009a]
Response: 4.52

Prompt: For the compound COC(=O)c1cc(NC(=O)c2cc(O)c(C(=O)Nc3ccc(O)c(C(=O)OC)c3)cc2O)ccc1O [Ic-007a-E2] , what pIC50 is on record?
Response: 4.64

Prompt: # input compound: O=C(O)Cc1ccccc1NC(=O)c1cc(O)c(C(=O)O)cc1O [Ia-034a] ; wanted: its pIC50
Response: 4.10

Prompt: Can you look up the measured pIC50 of O=C(O)c1cc(O)c(CS(=O)(=O)Cc2cc(O)c(C(=O)O)cc2O)cc1O [IIIc-059a] for me?
Response: 4.33

Prompt: Which pIC50 value belongs to O=C(O)c1cc(NC(=O)c2cc(O)c(C(=O)Nc3ccc(O)c(C(=O)O)c3)cc2O)ccc1O [Ic-007a] ?
Response: 4.89

Prompt: Tell me the measured pIC50 of O=C(O)c1cc(O)c(C(=O)Nc2ccccc2C(=O)O)cc1O [Ia-001a] , please.
Response: 4.39

Prompt: Recorded pIC50 of O=C(O)Cc1cc(O)c(C(=O)Nc2c(C(=O)O)cccc2C(=O)O)cc1O [IIIa-013a] , please.
Response: 4.77

Prompt: // lookup pIC50 for O=C(O)Cc1cccc(NC(=O)c2cc(O)cc(C(=O)O)c2O)c1 [IIa-033a]
Response: 4.46

Prompt: I would be grateful if you could share the reported pIC50 for O=C(O)c1cc(NC(=O)c2cc(O)c(C(=O)Nc3ccccc3-c3nnn[nH]3)cc2O)ccc1O [Ic-001a-Tz/004a] .
Response: 4.72

Prompt: Can you look up the measured pIC50 of O=C(O)c1cc(O)cc(C(=O)Nc2cccc(C(=O)O)c2C(=O)O)c1O [IIa-011a] for me?
Response: 3.85

Prompt: Can you look up the measured pIC50 of O=C(O)Cc1cc(O)c(C(=O)Nc2cc(C(=O)O)cc(C(=O)O)c2)cc1O [IIIa-015a] for me?
Response: 4.80
